MEASUREMENT DESCRIPTION: protein stability index of a GFP-peptide fusion (GPS, HEK-293T) (PSI 1-6); higher = more stable;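 further: 24-mer peptide tiles fused after GFP, lentivirally expressed, FACS-sorted into six equal bins by GFP/DsRed ratio, decoded by Illumina sequencing, PSI is the read-weighted mean bin number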
MEASUREMENT CONTEXT: treatment: DMSO; c terminus: a fixed tail appended
Please use true (1) whenever protein stability index is not below 3, and false (0) whenever it is.

Worked examples follow.
[
  {
    "RECORD SEQUENCE": "FEAYAKICDPGLTSFEPEALGNLV [CAMK2B]",
    "LABEL CLASS": "false (0)"
  },
  {
    "RECORD SEQUENCE": "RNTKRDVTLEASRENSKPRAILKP [PPP2R2B]",
    "LABEL CLASS": "true (1)"
  },
  {
    "RECORD SEQUENCE": "AAHPPLPLLPPAMGTEPAPSAPEA [TBX6]",
    "LABEL CLASS": "true (1)"
  },
  {
    "RECORD SEQUENCE": "EEIKKLTTDPDLILEVLRSSPMVQ [LARP4]",
    "LABEL CLASS": "false (0)"
  },
  {
    "RECORD SEQUENCE": "IVVSLQSKLASMSNDFKSVLEVRT [STX5]",
    "LABEL CLASS": "false (0)"
  }
]

Is it the case that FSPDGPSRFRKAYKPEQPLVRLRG [LOXL2] has protein stability index reaching or exceeding 3? false (0)

---

MEASUREMENT DESCRIPTION: protein stability index of a GFP-peptide fusion (GPS, HEK-293T) (PSI 1-6); higher = more stable
MEASUREMENT CONTEXT: treatment: MLN4924 1 uM, 8 h; c terminus: native
# maps each entry to its protein stability index
Give only the figure.

[
  {
    "RECORD SEQUENCE": "ASQSPKKPPAKDPLADLNIKDFL [SNAP91]",
    "OUTCOME MEASURE": "protein stability index",
    "MEASURED": 4.58
  },
  {
    "RECORD SEQUENCE": "DGSKSEDELDQASTPTDVRDIDL [CCND2]",
    "OUTCOME MEASURE": "protein stability index",
    "MEASURED": 4.71
  },
  {
    "RECORD SEQUENCE": "FLENLDKSRKGELLKKSDLQKDF [PRIM1]",
    "OUTCOME MEASURE": "protein stability index",
    "MEASURED": 5.15
  },
  {
    "RECORD SEQUENCE": "APVPTHSTVSELSRSPVATATSC [DUSP5]",
    "OUTCOME MEASURE": "protein stability index",
    "MEASURED": 2.86
  },
  {
    "RECORD SEQUENCE": "LKRSHRESQFLMAKKNFNTNLLE [HESX1]",
    "OUTCOME MEASURE": "protein stability index",
    "MEASURED": 3.62
  },
  {
    "RECORD SEQUENCE": "HRRDGKWQIVHFHRSGAPSVLPH [CAMK2A]",
    "OUTCOME MEASURE": "protein stability index",
    "MEASURED": 3.34
  },
  {
    "RECORD SEQUENCE": "TDDRIVVPQRGRSTRVPVASVLI [SPNS1]",
    "OUTCOME MEASURE": "protein stability index",
    "MEASURED": 2.82
  },
  {
    "RECORD SEQUENCE": "GFYFEVCGMMVESVNAKTLMSRI [PCDHGA10]",
    "OUTCOME MEASURE": "protein stability index",
    "MEASURED": 2.41
  }
]

Shift focus to the following entry.
Would you kindly share the measured protein stability index for VPDGLGLDEAREEEGDREVVLYG [TRIB3] ? 5.26
